List of IC50 values.
Target: melatonin ML1a receptor (Homo sapiens)
Construct: expressed in transfected cells; membrane homogenates
Sequence (P48039 whole entry): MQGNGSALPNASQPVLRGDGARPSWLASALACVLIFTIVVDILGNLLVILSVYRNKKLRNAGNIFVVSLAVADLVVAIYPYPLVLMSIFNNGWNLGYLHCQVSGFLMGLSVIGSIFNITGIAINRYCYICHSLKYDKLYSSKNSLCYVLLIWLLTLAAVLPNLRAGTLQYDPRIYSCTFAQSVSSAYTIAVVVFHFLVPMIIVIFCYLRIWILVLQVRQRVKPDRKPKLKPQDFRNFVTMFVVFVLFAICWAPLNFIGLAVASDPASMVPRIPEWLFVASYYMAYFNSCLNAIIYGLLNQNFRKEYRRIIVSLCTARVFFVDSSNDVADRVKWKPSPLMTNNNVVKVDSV
Assay: Melatonergic receptor binding, 2-[125I]-iodomelatonin, ML1a
Conditions: Table I; NIH-3T3 membranes, 0.1 nM 2-[125I]-iodomelatonin, 37° C. 1 hour
METRIC: IC50

{"MOLECULE": "CCCc1nc2cccc(CCCNC(=O)CC)c2o1 [Example 14]", "REPORTED": "10 to 250 nM"}
{"MOLECULE": "CC(=O)NCCCc1cccc2nc(-c3ccccc3)oc12 [Example 19]", "REPORTED": "10 to 250 nM"}
{"MOLECULE": "CC(C)C(=O)NCCCc1cccc2ncoc12 [Example 33]", "REPORTED": "10 to 250 nM"}
{"MOLECULE": "CCc1nc2cccc(CCCNC(=O)C3CC3)c2o1 [Example 11]", "REPORTED": "< 10 nM"}
{"MOLECULE": "CCc1nc2cccc(CCCNC(C)=O)c2o1 [Example 7]", "REPORTED": "10 to 250 nM"}
{"MOLECULE": "CCCC(=O)NCCCc1cccc2nc(C)oc12 [Example 3]", "REPORTED": "< 10 nM"}
{"MOLECULE": "CC(C)C(=O)NCCCc1cccc2nc(CCCCc3ccccc3)oc12 [Example 28]", "REPORTED": "< 10 nM"}
{"MOLECULE": "CCCC(=O)NCCCc1cccc2nc(CCCCc3ccccc3)oc12 [Example 27]", "REPORTED": "< 10 nM"}
{"MOLECULE": "CCCc1nc2cccc(CCCNC(C)=O)c2o1 [Example 13]", "REPORTED": "> 250 nM"}
{"MOLECULE": "CC(C)C(=O)NCCCc1cccc2nc(C(C)C)oc12 [Example 37]", "REPORTED": "10 to 250 nM"}
{"MOLECULE": "CCC(=O)NCCCc1cccc2nc(CC)oc12 [Example 8]", "REPORTED": "< 10 nM"}
